Please find below IC50 data on UniProt:P47871 compiled from the literature.
Observed property: IC50 (nM)

Worked set:
CCCC(c1ccc(C(=O)NCCC(=O)O)cc1)C(c1ccc(Cl)cc1)c1c2cc(Cl)cc(Cl)c2nn1C (single isomer, unassigned)
2
O=C(O)CCNC(=O)c1ccc(C(CCC(F)(F)F)C(c2ccc(Cl)cc2)c2ccnc3cc(Cl)ccc23)cc1 (stereo not shown)
0.2
CCC[C@H](c1ccc(C(=O)NCCC(=O)O)cc1)C(c1ccc(Cl)cc1)c1c(C)sc2ccccc12 (stereo partly shown)
2.2
CCCC(c1ccc(C(=O)NCCC(=O)O)cc1)C(c1ccc(Cl)cc1)c1cccc2nc(OC3CCC3)ccc12 (stereo not shown)
0.4
CCCC(c1ccc(C(=O)NCCC(=O)O)cc1)C(c1ccc(Cl)cc1)c1nc(CC)c2cc(OC)ccc2n1 (single isomer, unassigned)
1.7
CCC[C@H](c1ccc(C(=O)NCCC(=O)O)cc1)[C@@H](Oc1cc(C#N)cc(C(F)(F)F)c1)c1ccc(Cl)cc1
4.8
CCCC(c1ccc(C(=O)NCCC(=O)O)cc1)C(c1ccc(Cl)cc1)c1nn(C)c2c(C)cc(Cl)cc12 (single isomer, unassigned)
0.7
COCc1c(C(Nc2ccc(C(=O)N(C)CCC(=O)O)cc2)C2CCCCC2)oc2ccc(F)cc12 (single isomer, unassigned)
640

A. O=C(O)CCNC(=O)c1ccc(CN(C(=O)Nc2cccc(Br)c2)c2ccc(C3CCCCC3)cc2)cc1
B. Cc1cc2nccc(C(c3ccc(Cl)cc3)C(CCC(F)(F)F)c3ccc(C(=O)NCCC(=O)O)cc3)c2cc1F (stereo not shown)
Request: Which value of IC50 is greater, the one for A or the one for B ? // respond with label for picked entry
Result: A
(A: 42 nM, B: 0.2 nM)

A. CCC[C@H](c1ccc(C(=O)NCCC(=O)O)cc1)C(c1ccc(Cl)cc1)c1ccc2cc(OC(F)F)ccc2c1 (stereo partly shown)
B. CCCC(c1ccc(C(=O)NCCC(=O)O)cc1)C(c1ccc(Cl)cc1)c1c2cc(C(F)(F)F)cc(Cl)c2nn1C (single isomer, unassigned)
Request: Which value of IC50 is greater, the one for A or the one for B ? // respond with label for picked entry
Result: B
(B: 2.6 nM, A: 0.37 nM)

====

pIC50: −log10 of the molar value.
Please find below pIC50 data on Glucagon receptor (Homo sapiens, UniProt P47871) compiled from the literature.
Observed property: pIC50

Worked set:
O=C(O)CCNC(=O)c1ccc(CN(C(=O)Nc2cccc(C(F)(F)F)c2)c2ccc(C3CCCCC3)cc2)cc1
7.54
CCCC(c1ccc(C(=O)NCCC(=O)O)cc1)C(c1cccc(Cl)c1)c1ccnc2cc(F)c(F)cc12 (stereo not drawn)
9.22
CCCC(c1ccc(C(=O)NCCC(=O)O)cc1)C(c1ccc(Cl)cc1)c1n[nH]c2c(C)cc(Cl)cc12 (single isomer, unassigned)
9.22
CCC[C@H](c1ccc(C(=O)NCCC(=O)O)cc1)C(c1ccc(OC(F)(F)F)cc1)c1csc2c(C#N)cc(Cl)cc12 (stereo partly drawn)
10.00

1. CCCC(c1ccc(C(=O)NCCC(=O)O)cc1)C(c1ccc(Cl)cc1)c1ccnc2c(F)c(C)c(F)cc12 (stereo not drawn)
2. CCC[C@H](c1ccc(C(=O)NCCC(=O)O)cc1)[C@@H](Oc1ccnc2cc(Cl)ccc12)c1ccc(Cl)cc1
Request: Which value of pIC50 is greater, the one for 1 or the one for 2 ? // respond with label for picked entry
Result: 1
(1: 9.70, 2: 8.35)

P. CCC[C@H](c1ccc(C(=O)NCCC(=O)O)cc1)C(c1ccc(Cl)cc1)c1csc2c(C#N)cc(Cl)cc12 (stereo partly drawn)
Q. CCC[C@H](c1ccc(C(=O)NCCC(=O)O)cc1)[C@@H](Oc1cc(C(F)(F)F)nc2ccccc12)c1ccc(Cl)cc1
R. N#Cc1cc(Cl)cc2c(C(c3ccc(Cl)cc3)[C@H](CCC(F)(F)F)c3ccc(C(=O)NCCC(=O)O)cc3)csc12 (stereo partly drawn)
S. CN(CCC(=O)O)C(=O)c1ccc(NC(c2cn(-c3ccc(OC(F)(F)F)cc3)nc2OCc2ccccc2)C2CCCCC2)cc1 (stereo not drawn)
T. CCCC(c1ccc(C(=O)NCCC(=O)O)cc1)C(c1ccc(Cl)cc1)c1cc(C)nc2cc(Cl)ccc12 (stereo not drawn)
Request: Arrange these molecules by their pIC50, starting with the largest number. Output spec: a listing of the labels in the requested order.
Result: R, T, Q, P, S
(R: 9.70, T: 9.40, Q: 8.68, P: 8.21, S: 6.49)

====

pIC50: −log10 of the molar value.
Please find below pIC50 data on Glucagon receptor (Homo sapiens, UniProt P47871) compiled from the literature.
Observed property: pIC50

Worked set:
CCC[C@H](c1ccc(C(=O)NCCC(=O)O)cc1)C(c1ccc(Cl)cc1)c1csc2c(C)cc(Cl)cc12 (stereo partly shown)
7.55
Cc1c(C(Nc2ccc(C(=O)N(C)CCC(=O)O)cc2)C2CCCCC2)oc2ccc(OC3CCOCC3)cc12 (single isomer, unassigned)
7.08
CCCC(c1ccc(C(=O)NCCC(=O)O)cc1)C(c1ccc(Cl)cc1)c1n[nH]c2c(F)cc(C#N)cc12 (single isomer, unassigned)
8.37
CCCC(c1ccc(C(=O)NCCC(=O)O)cc1)C(c1ccc(Cl)cc1)c1c2cc(C(F)(F)F)cc(Cl)c2nn1CC(F)(F)F (single isomer, unassigned)
8.41
CCC[C@H](c1ccc(C(=O)NCCC(=O)O)cc1)[C@H](Oc1ccc(C(F)(F)F)cc1)c1ccc(Cl)cc1
8.10
CCCC(c1ccc(C(=O)NCCC(=O)O)cc1)C(c1ccc(Cl)cc1)c1ccnc2c(Cl)cc(OC)cc12 (stereo not shown)
9.22

a. CCC[C@H](c1ccc(C(=O)NCCC(=O)O)cc1)[C@@H](Oc1ccnc2c(C)cc(Cl)cc12)c1ccc(Cl)cc1
b. O=C(O)CCNC(=O)c1ccc(CN(C(=O)Nc2ccc(OC(F)(F)F)c(CO)c2)c2ccc(C3=CCCCC3)cc2)cc1
Request: When the recorded pIC50 values are compared, which is smaller: that of a or that of b ? // respond with label for picked entry
Result: b
(b: 7.19, a: 8.18)

a. CCCC(c1ccc(C(=O)NCCC(=O)O)cc1)C(c1ccc(Cl)cc1)c1ccnc2cc(Cl)ccc12 (stereo not shown)
b. CCCC(c1ccc(C(=O)NCCC(=O)O)cc1)C(c1ccc(Cl)cc1)c1ccc(OC)c2ccc(OC)cc12 (stereo not shown)
Request: When the recorded pIC50 values are compared, which is smaller: that of a or that of b ? // respond with label for picked entry
Result: b
(b: 7.85, a: 9.30)

====

pIC50: −log10 of the molar value.
Please find below pIC50 data on Glucagon receptor (Homo sapiens) compiled from the literature.
Observed property: pIC50

Worked set:
CCC[C@H](c1ccc(C(=O)NCCC(=O)O)cc1)[C@H](Oc1ccc(C(F)(F)F)cc1Cl)c1ccc(Cl)cc1
7.92
CCC[C@H](c1ccc(C(=O)NCCC(=O)O)cc1)[C@@H](Oc1ccc(C#N)c(Cl)c1)c1ccc(Cl)cc1
7.60

P. Cc1c(C(Nc2ccc(C(=O)NCCC(=O)O)cc2)C2CCCCC2)oc2ccccc12 (stereo not drawn)
Q. N#Cc1cc(NC(=O)N(Cc2ccc(C(=O)NCCC(=O)O)cc2)c2ccc(C3CCCCC3)cc2)cc(C(F)(F)F)c1
R. CCCC(c1ccc(C(=O)NCCC(=O)O)cc1)C(c1ccc(Cl)cc1)c1cccc2ccc(OC)nc12 (stereo not drawn)
S. CCC[C@H](c1ccc(C(=O)NCCC(=O)O)cc1)[C@@H](Oc1cc(Cl)c(Cl)c(C#N)c1)c1ccc(Cl)cc1
Request: Ascending by pIC50, please. Output spec: a listing of the labels in the requested order.
Result: P, Q, R, S
